Target: Induced myeloid leukemia cell differentiation protein Mcl-1 (Homo sapiens) (UniProt Q07820)
Sequence (Q07820 whole entry, looked up): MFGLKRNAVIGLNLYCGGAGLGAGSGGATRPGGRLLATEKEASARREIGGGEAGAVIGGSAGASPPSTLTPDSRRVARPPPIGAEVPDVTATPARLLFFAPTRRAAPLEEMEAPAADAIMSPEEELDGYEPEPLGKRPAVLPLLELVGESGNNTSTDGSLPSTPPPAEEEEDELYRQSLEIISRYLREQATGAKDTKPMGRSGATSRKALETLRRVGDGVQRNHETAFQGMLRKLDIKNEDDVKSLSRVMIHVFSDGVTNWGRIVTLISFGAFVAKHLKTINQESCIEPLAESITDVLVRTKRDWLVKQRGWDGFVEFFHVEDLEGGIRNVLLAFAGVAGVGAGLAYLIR
Assay: Mcl-1/Noxa binding inhibitor potency, dose response, biochemical, TR-FRET (AID 1417)
Conditions: Mcl-1/Noxa peptide interaction, cell-free TR-FRET (terbium/rhodamine), 2 h; measured here: absolute IC50
experimental-endpoint: IC50 (µM)
State the answer as a number, implicitly in µM.

Illustrative cases are given below, each with its answer.
O=[N+]([O-])c1cccc(S(=O)(=O)Nc2nc3ccccc3nc2Nc2cccc(S(=O)(=O)N3CCCCC3)c2)c1	3.75
O=c1oc2ccccc2c(O)c1/C=C1\C=Nc2ccccc21	4.8
CCN1c2ccccc2N(C)C1(C)c1ccccc1 (stereo unspecified)	5.11
Oc1ccccc1NCC(O)Cn1ccc2ccccc21 (stereo unspecified)	5.23
O=c1/c(=C/c2ccc(O)c([N+](=O)[O-])c2)sc2nc3ccccc3n12	4.26
COc1ccccc1NC(=O)c1cc2cc(Br)ccc2cc1O	2.11
Oc1cccc2cc3cccc(O)c3c(O)c12	1.96
O=C(N/N=C/c1ccncc1)c1cc([N+](=O)[O-])cc([N+](=O)[O-])c1O	2.49

Qu. Dear colleague, I am looking for the recorded IC50 of the following compound: CCOc1ccc2nc(NC(=O)c3cccc(-c4cc5ccccc5oc4=O)c3)sc2c1
Ans. 3.75

Qu. How about CN1CCN(c2ccc([N+](=O)[O-])cc2/C=N/NC(=O)c2ccc(F)cc2)CC1 ?
Ans. 4.75

From: PubChem BioAssay AID1417
